- assayDetails: DRUGMATRIX: GABAA, Muscimol, Central radioligand binding (ligand: [3H] Muscimol)
- Assay type: cell membranes, Rattus norvegicus, Wistar, Brain, Membrane
- testParameters: Not Active = under 50% inhibition at 10 µM
measuredProperty: IC50

These recorded examples may help you get a feel for the data.
compound	IC50
CC(C)NCC(O)c1ccc(O)c(O)c1 (stereo unspecified)	Not Active
C[C@@H]1C[C@H]2[C@@H]3CCC4=CC(=O)C=C[C@]4(C)[C@@]3(F)[C@@H](O)C[C@]2(C)[C@H]1C(=O)CO	Not Active
Nc1ccn([C@@H]2O[C@H](CO)[C@@H](O)[C@@H]2O)c(=O)n1	Not Active
COc1ccc2cc3[n+](cc2c1OC)CCc1cc2c(cc1-3)OCO2.[Cl-] [BERBERINE CHLORIDE]	Not Active
CC(C(=O)O)c1cccc(Oc2ccccc2)c1 (stereo unspecified)	Not Active

Then this compound:
Return reported IC50; argument: CO[C@@H]1[C@@H](OC)[C@H](C)[C@@](O)(CC(=O)O)O[C@H]1[C@H](C)[C@H]1O[C@@]2(CC[C@@](C)([C@H]3CC[C@@](C)([C@@H]4O[C@@H]([C@H]5O[C@](C)(O)[C@H](C)C[C@@H]5C)C[C@@H]4O[C@@H]4C[C@H](OC)[C@@H](OC)[C@H](C)O4)O3)O2)C[C@H](O)[C@H]1C
Not Active

Source: ChEMBL document CHEMBL1909046
